The reported measurements were obtained from ChEMBL document CHEMBL1131034.

- assayed-system: 5-hydroxytryptamine receptor 1A (Homo sapiens) (UniProt P08908)
- Sequence (P08908 whole entry): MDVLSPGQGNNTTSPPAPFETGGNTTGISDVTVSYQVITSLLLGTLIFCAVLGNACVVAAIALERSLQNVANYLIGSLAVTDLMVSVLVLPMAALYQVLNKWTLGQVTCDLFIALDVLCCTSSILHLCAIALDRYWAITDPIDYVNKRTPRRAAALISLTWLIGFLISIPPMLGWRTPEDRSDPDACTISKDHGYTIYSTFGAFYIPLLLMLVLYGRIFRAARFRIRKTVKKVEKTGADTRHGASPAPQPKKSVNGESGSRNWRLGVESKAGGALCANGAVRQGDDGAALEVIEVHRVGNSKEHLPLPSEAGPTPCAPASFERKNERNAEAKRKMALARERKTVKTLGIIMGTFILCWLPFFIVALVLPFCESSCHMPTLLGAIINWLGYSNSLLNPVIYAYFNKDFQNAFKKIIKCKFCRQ
- test-method-notes: Antagonist activity against CHO cells expressing the human 5-hydroxytryptamine 1A receptor in a forskolin stimulated adenylate cyclase (FSC) assay.
- Type: functional, cell-based
measurement-type: FSC recovery (%)

- COc1ccc(CCCNCCOc2cc(F)cc3c2OC(C)CC3)cc1 (stereo unspecified): 40
- N#Cc1ccc(CCCCNCCOc2cc(F)cc3c2OCCC3=O)cc1: 17
- COc1ccc(CCNCCOc2cc(F)cc3c2OCCC3=O)cc1: 9
- COc1ccc(CCCCNCCOc2cc(F)cc3c2OCCC3=O)c(C)c1C: 17

I: CCCN(CCCCc1ccc2c(c1)OCO2)CCOc1cc(F)cc2c1OCCC2=O
II: COc1ccc(CCNCCOc2cc(F)cc3c2OC(C)CC3)cc1 (stereo unspecified)
Query string: Pick one: I or II . Which has the bigger FSC recovery number? Kindly give the label for the entry you pick.
Result string: II
